Entry source: ChEMBL document CHEMBL3045326

system: Spodoptera exigua; experiment: Insecticidal activity against Spodoptera exigua larvae assessed as inhibition of larval growth at 5 umol/g of diet administered through compound containing diet after 7 days; format: functional
Calls of active or inactive are those of the source. No cut-off for these calls is given here.
reported metric: growth inhibition (GI)

> print(dat)
                                   compound         reported.metric    result
1                  CCCCCCCCCCCCCCCCCc1ccco1  growth inhibition (GI)       93%
2  CCCCCCCCCCCCCCC1CCCO1 (configuration not stated)  growth inhibition (GI)  inactive
3  CCCCCCCCCCCCCCCC1CCCO1 (configuration not stated) [2-PENTADECYLTETRAHYDROFURAN]  growth inhibition (GI)       45%
4                    CCCCCCCCCCCCCCCc1ccco1  growth inhibition (GI)       98%
5  CCCCCCCCCCCCCCCCCC1CCCO1 (configuration not stated) [2-(HEPTADECYL)TETRAHYDROFURAN]  growth inhibition (GI)       59%

Next:
Exercise: Look at this compound and give its reported growth inhibition (GI). CCCCCCCCCCCCCCCCC1CCCO1 (configuration not stated)
Key: inactive
